- study-system: HIV-1 protease (Human immunodeficiency virus type 1 group M subtype B, UniProt P04585)
- experiment-description: biochemical
- condition-context: HIV-1 Protease IC50
result-type: pIC50
Worth noting: pIC50 values are minus log10 of concentrations stated in mol/L.

Record CCC(c1cccc(NC(=O)CCn2ccc3ccccc32)c1)c1c(O)c2ccccc2oc1=O (stereo not drawn) [Example 63] . Reported pIC50: 5.70

For record CC(C)C(c1ccc(Br)cc1)c1c(O)c2ccccc2oc1=O (stereo not drawn) [Example 12] the listed pIC50 is 4.92

The reported value for CCC(c1cccc(NC(=O)C(NC(=O)OC(C)(C)C)C(C)C)c1)c1c(O)c2ccccc2oc1=O (stereo not drawn) [Example 42] in terms of pIC50 is 5.00

The recorded pIC50 for CC(C)(c1ccccc1)c1c(O)c2ccccc2oc1=O [Example 39, 3-(α,α-dimethylbenzyl)4-hydroxy coumarin] is 5.30

CCCCC(c1ccccc1)c1c(O)c2ccccc2oc1=O (stereo not drawn) [Example 11, 4-Hydroxy-3-(1-phenylpentyl)-coumarin] yielded pIC50 of 5.72

More entries:
Notebook: C=CCOc1ccc2c(O)c(C(CC)c3ccccc3)c(=O)oc2c1 (stereo not drawn) [Example 78] , pIC50 read as 5.08

# pIC50 (molecule: CCC(c1ccccc1)c1c(O)c2ccc(O)cc2oc1=O (stereo not drawn) [Example 93] ) is 4.69

###

- study-system: HIV-1 protease (Human immunodeficiency virus type 1 group M subtype B, UniProt P04585)
- experiment-description: biochemical
- condition-context: read-out: HIV-1 FITC KI
result-type: pKi
Friendly reminder that pKi comes from taking -log10 of the concentration in mol/L.

Short answer for O=C(CCn1ccc2ccccc21)Nc1cccc(C(c2c(O)c3c(oc2=O)CCCCC3)C2CC2)c1 (stereo not shown) : pKi was 7.56

---
Form: compound = O=c1oc2c(c(O)c1C(c1cccs1)C1CC1)CCCCCC2 (stereo not shown) ; pKi = 7.74

Value of pKi reported for the compound Cc1nn(C)c(Cl)c1S(=O)(=O)Nc1cccc(C(c2c(O)c3c(oc2=O)CCCCCC3)C2CC2)c1 (stereo not shown) is 6.86

GET /value?item= O=c1oc2c(c(O)c1C(c1cccc(NS(=O)(=O)c3cccc(N(CCO)CCO)c3)c1)C1CC1)CCCCCC2 (stereo not shown) [Example 355 (Second Title Compound)] &field=pKi returns 8.97

pKi measured on `O=c1oc2c(c(O)c1[C@H](c1cccc(NS(=O)(=O)/C=C/c3ccccc3)c1)C1CC1)CCCCCC2` = 8.52

What the record says about Cc1sc(C(c2c(O)c3c(oc2=O)CCCCCC3)C2CC2)cc1CO (stereo not shown) : pKi is 8.22

pKi in this record for O=c1oc2c(c(O)c1C(c1cccc(NS(=O)(=O)c3cccc4nonc34)c1)C1CC1)CCCCCC2 (stereo not shown) : 8.57

###

- study-system: HIV-1 protease (Human immunodeficiency virus type 1 group M subtype B, UniProt P04585)
- experiment-description: biochemical
- condition-context: read-out: HIV-1 Protease % Inhib, dose 1.100 uM
result-type: inhibition at 1.1 µM (%)
Write it as a number; the unit % goes unstated.

The following compounds have reported results that may help.
Measured inhibition at 1.1 µM of CCCCC(c1cccc(NS(=O)(=O)c2ccc(C#N)cc2)c1)c1c(O)c2c(oc1=O)CCCCCC2 (stereo not shown) [Example 421] : 99.1

// recorded inhibition at 1.1 µM for CC(C)C(c1cccc(NS(=O)(=O)c2cccc3cccnc23)c1)c1c(O)c2c(oc1=O)CCCCCC2 (stereo not shown) [Example 416] : 102

Item: CCCC(c1cccc(NS(=O)(=O)c2ccc(C#N)cc2)c1)c1c(O)c2c(oc1=O)CCCCCC2 (single isomer, unassigned) [Example 437] | inhibition at 1.1 µM: 103

The compound O=c1oc2c(c(O)c1C(c1ccccc1)C1CC1)CCCCC2Cc1ccccc1 (stereo not shown) [Example 182] showed inhibition at 1.1 µM equal to 51

Value of measured inhibition at 1.1 µM for the entry O=C(NCc1ccc(C(c2c(O)c3c(oc2=O)CCCCCC3)C2CC2)o1)OCc1ccccc1 (stereo not shown) [Example 388] : 76

The compound O=C1c2ccccc2C(=O)N1CCS(=O)(=O)Nc1cccc(C(c2c(O)c3c(oc2=O)CCCCCC3)C2CC2)c1 (stereo not shown) [Example 327] showed inhibition at 1.1 µM equal to 94.8

// field: inhibition at 1.1 µM; key: CCCC(c1cccc(NS(=O)(=O)c2cccc3cccnc23)c1)c1c(O)c2c(oc1=O)CCCCCC2 (stereo not shown) [Example 432] ; value = 111

Documented inhibition at 1.1 µM of CC(CO)C1CCCCCc2c1oc(=O)c(C(c1ccccc1)C1CC1)c2O (stereo not shown) [Example 161] : 98.7

inhibition at 1.1 µM reading for Cc1noc(C)c1S(=O)(=O)Nc1cccc(C(c2c(O)c3c(oc2=O)CCCCCC3)C2CC2)c1 (stereo not shown) [Example 338] : 86.3

Note to self: inhibition at 1.1 µM recorded for O=c1oc2c(c(O)c1C(c1cccc(NS(=O)(=O)c3cc(Cl)cc(Cl)c3O)c1)C1CC1)CCCCCC2 (stereo not shown) [Example 284] was 99.8

Further cases:
Given item Cc1nn(C)c(Cl)c1S(=O)(=O)Nc1cccc(C(c2c(O)c3c(oc2=O)CCCCCC3)C2CC2)c1 (stereo not shown) [Example 294] , the value recorded as its inhibition at 1.1 µM is 52.9

# inhibition at 1.1 µM (compound: CC(C)CCC1CCCCc2c1oc(=O)c(C(c1ccccc1)C1CC1)c2O (stereo not shown) [Example 184] ) is 60.7

// recorded inhibition at 1.1 µM for O=c1oc2c(c(O)c1C(c1cccc(NS(=O)(=O)c3ccc(I)cc3)c1)C1CC1)CCCCCC2 (stereo not shown) [Example 300] : 101

Input O=c1oc2c(c(O)c1C(c1cccc(NS(=O)(=O)c3ccc(Br)cc3)c1)C1CC1)CCCCCC2 (stereo not shown) [Example 272] . Output inhibition at 1.1 µM: 95.3

Per the records, this compound ( CCC(c1cccc(NC(=O)CCNC(=O)OC(C)(C)C)c1)c1c(O)c2c(oc1=O)CCCCCC2 (stereo not shown) [Example 219] ) has inhibition at 1.1 µM equal to 92.5

Notebook: O=c1oc2c(c(O)c1C(c1cccc(NS(=O)(=O)c3cccc(CO)c3)c1)C1CC1)CCCCCC2 (stereo not shown) [Example 356] , inhibition at 1.1 µM read as 97.9

The reported numbers originate from patent US5686486A.
